Origin of the recorded values: PubChem BioAssay (NCI)

test system: SW-620 colon; assay: NCI tumour cell line growth inhibition, 48 h; in the data active = GI50 below about 0.43 µM; inactive = the rest
Reply using exactly one outcome from Y = active, N = inactive

O=C(NCCNCCO)c1ccc2c(c1)oc1cc3ccccc3c(=O)n12
N
CNCc1cccc2c1OCCOCCOCCN(C)S(=O)(=O)c1ccc(cc1)-c1cnc(N)c(n1)C(=O)N2
N
CNC(=O)c1ncccc1Nc1nc(Nc2cc3c(cc2OC)CCCN3C(=O)CN(C)C)nc2[nH]ccc12
Y

Query compound follows.
Enquiry: Identify the outcome logged in this assay for the compound shown: COc1ccc2c(c1)C(=O)c1c-2c(Nc2ccccc2OC)nc2ccccc12
Return: N

###

system: HCC-2998 colon; assay: NCI tumour cell line growth inhibition, 48 h; in the data active = GI50 below about 0.43 µM; inactive = the rest
Reply using exactly one outcome from active, inactive

# count of solved cases: 9
CCCCCCCCCCCC[N+]1(CCCCCCCCCCCC)CCCC(C)C1 (stereo not given)
active
N#Cc1nc2c(S(=O)(=O)c3ccc(Cl)cc3)c(N)n(Nc3cccc(Cl)c3)c2nc1C#N
active
CNCc1cccc2c1OCCOCCOCCN(C)S(=O)(=O)c1ccc(cc1)-c1cnc(N)c(n1)C(=O)N2
inactive
O=C(OCc1ccc2c(Br)cc(Br)c(O)c2n1)c1cc2ccccc2[nH]1
inactive
COc1ccc2c(c1)C(=O)c1c-2c(Nc2ccccc2OC)nc2ccccc12
inactive
CN(C)CCCC1(c2ccc(F)cc2)OCc2cc(-c3cccc4[nH]ccc34)ccc21 (stereo not given)
inactive
COc1cc2c(N3CCN(C(=O)Nc4ccc(OC(C)C)cc4)CC3)ncnc2cc1OCCCN1CCCCC1
inactive
CCN(CC)CCCNc1ccc(C)c2sc3ccccc3c(=O)c12
inactive
N#CC1c2ccccc2C=CN1C(=O)CCCl (stereo not given)
inactive

Query compound follows.
Enquiry: Identify the outcome logged in this assay for the compound shown: Cc1ccc(O)cc1Nc1ccnc2ccc(S(C)(=O)=O)cc12
Return: inactive

###

test system: HCT-116 colon; assay: NCI tumour cell line growth inhibition, 48 h
I would appreciate it if you labelled entries Satisfied when TGI is 30 µM or higher, otherwise Not satisfied.

Enquiry: Threshold query (TGI >= 30 µM) on CCN(CC)Cc1cc(Nc2nc(NC3CCC(N(C)C)CC3)c3ccccc3n2)ccc1OC (centres undefined)
Return: Not satisfied

Enquiry: Threshold query (TGI >= 30 µM) on CN(CCN1CCCC1)C1CCc2cc(Cl)c(Cl)cc2C1 (centres undefined)
Return: Not satisfied

Enquiry: Threshold query (TGI >= 30 µM) on NS(=O)(=O)c1nnc(NC(=O)N(c2ccccc2)c2ccccc2)s1
Return: Satisfied

Enquiry: Threshold query (TGI >= 30 µM) on CN[C@@H](C)C(=O)N[C@H]1CN(S(=O)(=O)c2cccc(S(=O)(=O)N3CC[C@H]4CC[C@@H](C(=O)NC(c5ccccc5)c5ccccc5)N4C(=O)[C@@H](NC(=O)[C@H](C)NC)C3)c2)CC[C@H]2CC[C@@H](C(=O)NC(c3ccccc3)c3ccccc3)N2C1=O
Return: Satisfied

Enquiry: Threshold query (TGI >= 30 µM) on O=C(NCCNCCO)c1ccc2c(c1)oc1cc3ccccc3c(=O)n12
Return: Satisfied

###

# GI50 values compiled below
system: TK-10 renal; assay: NCI tumour cell line growth inhibition, 48 h

COc1ccc(OC)c(/C=C/c2nc(=S)n(-c3ccc(Cl)cc3)[nH]2)c1
25.8 µM
Nc1ncnc2c1N=C(c1ccc3c(c1)OCO3)CC(c1ccc(Cl)cc1)N2 (stereo not drawn)
8.22 µM

Enquiry: For COc1ccc2c(N)ncc(C#Cc3cc(C(=O)Nc4ccc(CN5CCN(C)CC5)c(C(F)(F)F)c4)cnc3C)c2c1 , write its GI50.
Return: 0.821 µM
